Target: HLA-B*40:01
Test: IEDB peptide-MHC binding, purified MHC/direct/fluorescence; filed as Kd, often an IC50 or EC50 that approximates it; bounds were set here for any values at or beyond the usual limits of such assays
Conditions: source organism: Influenza A virus (A/duck/Korea/S10/03(H3N2))
Readout Kind: Kd

Fill in: Kd of PAHKSQLVW is ___
≥ 20 µM

* * *

Biological target: HLA-B*07:02
Experiment: IEDB peptide-MHC binding, purified MHC/competitive/radioactivity; filed as Kd, often an IC50 or EC50 that approximates it; bounds were set here for any values at or beyond the usual limits of such assays
Conditions: source organism: Mammarenavirus brazilense
Readout Kind: pKd
Quick note: pKd values are minus log10 of concentrations in mol/L.

Fill in: pKd of LPTSIVVPI is ___
6.91

* * *

Target: HLA-B*35:01
Test: IEDB peptide-MHC binding, purified MHC/direct/fluorescence; filed as Kd, often an IC50 or EC50 that approximates it; bounds were set here for any values at or beyond the usual limits of such assays
Settings: source organism: Rickettsia prowazekii
Readout Kind: pKd
Quick note: pKd values are minus log10 of concentrations in mol/L.

Fill in: pKd of NLKLYGAEF is ___
6.55

* * *

Target: HLA-A*11:01
Assay: IEDB peptide-MHC binding, purified MHC/competitive/radioactivity; filed as Kd, often an IC50 or EC50 that approximates it; bounds were set here for any values at or beyond the usual limits of such assays
Details: source organism: Dengue virus 3 Martinique/1243/1999
Readout Kind: Kd (nM)
Form entry: value (nM) — number only.

| Item Sequence | Assayed Target | Unit Text | Kd |
| --- | --- | --- | --- |
| LALGFFLRK | HLA-A*11:01 | nM | 9.58 |
| GSCVYNMMGK | HLA-A*11:01 | nM | 25.8 |
| EVMRGKFGK | HLA-A*11:01 | nM | 850 |
| TTKRDLGMSK | HLA-A*11:01 | nM | 115 |

Continue with the sequence presented below.
Fill in: Kd of VLARWGTFK is ___
52.3

* * *

Biological target: HLA-A*02:19
Assay: IEDB peptide-MHC binding, purified MHC/competitive/fluorescence; filed as Kd, often an IC50 or EC50 that approximates it; bounds were set here for any values at or beyond the usual limits of such assays
Conditions: source organism: Cryptosporidium parvum Iowa II
pKd: −log10 of the molar value.
Readout Kind: pKd

Fill in: pKd of FLYPSWSLY is ___
≤ 4.70

* * *

Target: HLA-B*46:01
Assay: IEDB peptide-MHC binding, purified MHC/competitive/fluorescence; filed as Kd, often an IC50 or EC50 that approximates it; bounds were set here for any values at or beyond the usual limits of such assays
Details: source organism: Entamoeba histolytica HM-1:IMSS
Readout Kind: Kd

Fill in: Kd of KTRMEDYYL is ___
≥ 20 µM

* * *

Target: HLA-A*31:01
Test: IEDB peptide-MHC binding, purified MHC/competitive/fluorescence; filed as Kd, often an IC50 or EC50 that approximates it; bounds were set here for any values at or beyond the usual limits of such assays
Conditions: source organism: Pseudomonas aeruginosa UCBPP-PA14
pKd: −log10 of the molar value.
Readout Kind: pKd

Fill in: pKd of FLDDASNSA is ___
≤ 4.70

* * *

Quick list: Kd per entry.
Biological target: HLA-B*15:17
Assay: IEDB peptide-MHC binding, purified MHC/competitive/fluorescence; filed as Kd, often an IC50 or EC50 that approximates it; bounds were set here for any values at or beyond the usual limits of such assays
Details: source organism: Zaire ebolavirus

Sample records with Kd:
| Item Sequence | Readout Kind | Observed Value |
| --- | --- | --- |
| FPSNMMVVT | Kd | ≥ 20 µM |
| HQKKNEISF | Kd | ≥ 20 µM |

Fill in: Kd of GLSFLNPEK is ___
≥ 20 µM

* * *

Molecular target: HLA-B*08:01
Assay: IEDB peptide-MHC binding, purified MHC/direct/fluorescence; filed as Kd, often an IC50 or EC50 that approximates it; bounds were set here for any values at or beyond the usual limits of such assays
Details: source organism: Escherichia coli 536
pKd: −log10 of the molar value.
Readout Kind: pKd

Fill in: pKd of RMYGISPWT is ___
≤ 4.70

* * *

Quick list: Kd per entry.
Target: HLA-B*07:02
Test: IEDB peptide-MHC binding, purified MHC/direct/fluorescence; filed as Kd, often an IC50 or EC50 that approximates it; bounds were set here for any values at or beyond the usual limits of such assays
Settings: source organism: Mycobacterium tuberculosis str. Haarlem
Form entry: value (µM) — number only.

| Item Sequence | Kd, µM |
| --- | --- |
| WASGVPAAT | 6.5 |

Continue with the sequence presented below.
Fill in: Kd of GPRQWRWPL is ___
0.0142

* * *

Target: HLA-A*02:03
Test: IEDB peptide-MHC binding, purified MHC/direct/fluorescence; filed as Kd, often an IC50 or EC50 that approximates it; bounds were set here for any values at or beyond the usual limits of such assays
Details: source organism: Orthohantavirus tulaense
Readout Kind: Kd

What Kd appears in the records for this sequence with HLA-A*02:03? SLMSRVVYK
≥ 20 µM

* * *

Biological target: HLA-A*69:01
Assay: IEDB peptide-MHC binding, purified MHC/competitive/fluorescence; filed as Kd, often an IC50 or EC50 that approximates it; bounds were set here for any values at or beyond the usual limits of such assays
Settings: source organism: Vibrio vulnificus YJ016
Quick list: Kd per entry.

| Item Sequence | Observed Value |
| --- | --- |
| DFISMYFPW | ≥ 20 µM |

Continue with the sequence presented below.
Fill in: Kd of SVMSTFFWE is ___
≥ 20 µM

* * *

Biological target: HLA-A*11:01
Assay: IEDB peptide-MHC binding, purified MHC/direct/fluorescence; filed as Kd, often an IC50 or EC50 that approximates it; bounds were set here for any values at or beyond the usual limits of such assays
Conditions: source organism: Bacillus anthracis
pKd: −log10 of the molar value.
Quick list: pKd per entry.

Fill in: pKd of WFREDRSPV is ___
≤ 4.70

Fill in: pKd of RTHLGFIFQ is ___
≤ 4.70

Fill in: pKd of GTLTKGVFK is ___
7.92

Fill in: pKd of MSDIFASEV is ___
≤ 4.70

* * *

Target: HLA-A*02:11
Assay: IEDB peptide-MHC binding, purified MHC/competitive/fluorescence; filed as Kd, often an IC50 or EC50 that approximates it; bounds were set here for any values at or beyond the usual limits of such assays
Conditions: source organism: Entamoeba histolytica
Readout Kind: Kd

Fill in: Kd of RASHFRKLF is ___
≥ 20 µM

* * *

Target: HLA-B*44:02
Test: IEDB peptide-MHC binding, purified MHC/competitive/radioactivity; filed as Kd, often an IC50 or EC50 that approximates it; bounds were set here for any values at or beyond the usual limits of such assays
Settings: source organism: Mammarenavirus guanaritoense
Readout Kind: Kd

Fill in: Kd of YEERLNEQLL is ___
≥ 10 µM

* * *

Target: HLA-A*02:01
Assay: IEDB peptide-MHC binding, purified MHC/direct/fluorescence; filed as Kd, often an IC50 or EC50 that approximates it; bounds were set here for any values at or beyond the usual limits of such assays
Conditions: source organism: Salmonella enterica
Readout Kind: Kd

Fill in: Kd of WTDLYTSMS is ___
≥ 20 µM

* * *

Target: HLA-A*02:12
Assay: IEDB peptide-MHC binding, purified MHC/direct/fluorescence; filed as Kd, often an IC50 or EC50 that approximates it; bounds were set here for any values at or beyond the usual limits of such assays
Conditions: source organism: Ravn virus - Ravn, Kenya, 1987
pKd: −log10 of the molar value.
Quick list: pKd per entry.

| Item Sequence | pKd |
| --- | --- |
| FPSNMMVVT | ≤ 4.70 |

Continue with the sequence presented below.
Fill in: pKd of GLSFLNPEK is ___
≤ 4.70

* * *

Molecular target: HLA-B*51:01
Test: IEDB peptide-MHC binding, purified MHC/competitive/fluorescence; filed as Kd, often an IC50 or EC50 that approximates it; bounds were set here for any values at or beyond the usual limits of such assays
Details: source organism: Bacillus anthracis str. A0488
pKd: −log10 of the molar value.
Readout Kind: pKd

Fill in: pKd of KQGDVFYTA is ___
≤ 4.70

* * *

Biological target: HLA-B*27:05
Assay: IEDB peptide-MHC binding, purified MHC/competitive/fluorescence; filed as Kd, often an IC50 or EC50 that approximates it; bounds were set here for any values at or beyond the usual limits of such assays
Settings: source organism: Mammarenavirus juninense
Readout Kind: Kd (nM)
Form entry: value (nM) — number only.

What Kd appears in the records for this sequence with HLA-B*27:05? YRWVNLASF
98.1
